system: SNB-78; experiment: NCI tumour cell line growth inhibition, 48 h
Structures can show the parent of a compound that is named as a salt. The source made the active and inactive calls. Rule as the data show it: active = GI50 up to about 1.1 µM and inactive = higher.
MEASURED_PROPERTY: GI50

Examples from the recorded data:
O=C1C2CCC(C2)C12CC1(c3ccccc3)C(=O)c3ccccc3N1O2 (stereo unspecified) ... > 100 µM (inactive)
CCN1CCCC(NCc2c3ccccc3c(CNC3CCCN(CC)C3)c3ccccc23)C1 (stereo unspecified) ... 22.3 µM (inactive)
CCCCN(CCCC)C(=Nc1ccccc1)N(CCCC)CCCC ... 11.1 µM (inactive)
N[C@@H](Cc1ccc(N(CCCl)CCCl)cc1)C(=O)O [MELPHALAN HYDROCHLORIDE] ... 55.5 µM (inactive)
Cc1cccc2ns[s+]c12 ... > 100 µM (inactive)

# input Dear colleague, please send me the reported GI50 for `O=[N+]([O-])c1cc(C(F)(F)F)cc2n[se]nc12` when you can.
# output 12.3 µM (inactive)

# input Dear colleague, please send me the reported GI50 for `COc1cc(C=C2C(=O)NC(=O)NC2=O)cc(OC)c1OC` when you can.
# output > 100 µM (inactive)

# input Dear colleague, please send me the reported GI50 for `Cc1ccc(/C=N/NS(=O)(=O)c2ccccc2)cc1C` when you can.
# output > 100 µM (inactive)

# input Dear colleague, please send me the reported GI50 for CCOC1=C2N=C(C(CC)c3ccc(F)cc3)N=C2C(=O)c2ccccc21 (stereo unspecified) when you can.
# output 27.8 µM (inactive)

# input Dear colleague, please send me the reported GI50 for CC/C=C/c1cc2cc[nH]c2c2c1C(C)C[C@@H]2C (stereo partly specified) when you can.
# output 24.9 µM (inactive)

# input Dear colleague, please send me the reported GI50 for O=C1C2C=CC(n3[nH]c(=O)n(Cc4ccccc4)c3=O)CC2C(=O)N1c1ccc(Br)cc1 (stereo unspecified) when you can.
# output > 100 µM (inactive)
